All values here come from paper PMC7721589.

EXPERIMENTAL_PARAMETERS: mouse, microsomes
QUANTITY_KIND: MLM Clint
Answers are plain numbers.

Study these solved cases before continuing.
MOLECULE	MLM Clint
CN1CCN(c2cccc3c2CN(Cc2ccc(-c4ccc(Cl)cc4)cn2)CC3)CC1 [Compound 10]	238
Cc1ccc(N2CCN(C)CC2)c2c1CCN(C(=O)N1CCC(Oc3ccc(OC(F)(F)F)cc3)CC1)C2 [Compound 48]	40
COc1ccc(N2CCN(C)CC2)c2c1CCN(C(=O)Nc1ccc(-c3ccc(Cl)cc3Cl)cn1)C2 [Compound 36]	584
Cc1cc(Cl)ccc1-c1ccc(NC(=O)N2CCc3c(F)ccc(N4CCN(C)CC4)c3C2)nc1 [Compound 42]	65

Please turn your attention to the following entry.
Input CCc1ccc(N2CCN(C)CC2)c2c1CCN(C(=O)Nc1ccc(-c3ccc(C(F)(F)F)cc3)cn1)C2 [Compound 27] . Output MLM Clint: 810

###

TGT: M. smegmatis ATP synthase (Mycolicibacterium smegmatis, UniProt A0R205+A0R206)
RUN_DESCRIPTION: Inhibition of mycobacterial ATP synthase
EXPERIMENTAL_PARAMETERS: read-out: M. smeg ATPsynth IC50; M. smegmatis ATP synthase
Assign IC50 to each entry below.
Numbers only, in µM.

These recorded examples may help you get a feel for the data.
MOLECULE	U	IC50
CN1CCN(c2cccc3c2CN(C(=O)Nc2ccc(-c4ccc(OC(F)(F)F)cc4)cn2)CC3)CC1 [Compound 23]	µM	12.1
COc1ccc(N2CCN(C)CC2)c2c1CCN(C(=O)Nc1ccc(-c3ccc(Cl)cc3Cl)cn1)C2 [Compound 36]	µM	5.7
CN1CCN(c2cccc3c2CN(Cc2ccc(-c4ccc(Cl)cc4)cn2)CC3)CC1 [Compound 10]	µM	16.6
CCc1ccc(N2CCN(C)CC2)c2c1CCN(C(=O)Nc1ccc(-c3ccc(C(F)(F)F)cc3)cn1)C2 [Compound 27]	µM	4.2
Cc1ccc(N2CCN(C)CC2)c2c1CCN(C(=O)N1CCC(Oc3ccccc3C(F)(F)F)CC1)C2 [Compound 49]	µM	12
Cc1cc(Cl)ccc1-c1ccc(NC(=O)N2CCc3c(F)ccc(N4CCN(C)CC4)c3C2)nc1 [Compound 42]	µM	3.64

State recorded IC50 for all listed molecules.
1. COc1ccc(N2CCN(C)CC2)c2c1CCN(C(=O)Nc1ccc(-c3ccc(Cl)cc3C)cn1)C2 [Compound 35]
2. Cc1ccc(N2CCN(C)CC2)c2c1CCN(C(=O)Nc1ccc(-c3cc(C(F)(F)F)cc(C(F)(F)F)c3)cn1)C2 [Compound 26]

Ans:
12.4
24.2

###

QUANTITY_KIND: melting point

Below, 3 molecules whose answers are already recorded.
MOLECULE	TEST_RESULT
CN1CCN(c2ccc(F)c3c2CN(Cc2ccc(-c4ccc(Cl)cc4C(F)(F)F)cn2)CC3)CC1 [Compound 17]	102 to 104 °C
Cc1ccc(N2CCN(C)CC2)c2c1CCN(C(=O)Nc1ccc(-c3cc(C(F)(F)F)cc(C(F)(F)F)c3)cn1)C2 [Compound 26]	114 to 117 °C
COc1ccc(N2CCN(C)CC2)c2c1CCN(C(=O)Nc1ccc(-c3ccc(C(F)(F)F)cc3Cl)cn1)C2 [Compound 34]	61 to 64 °C

Continue with the molecule presented below.
Given item Cc1cc(Cl)ccc1-c1ccc(NC(=O)N2CCc3c(F)ccc(N4CCN(C)CC4)c3C2)nc1 [Compound 42] , the value recorded as its melting point is 98 to 101 °C

###

Would you kindly list HLM Clint for each of these molecules?
EXPERIMENTAL_PARAMETERS: human, microsomes
Answers are plain numbers.

Worked cases, answers included:
COMPOUND_STRUCTURE	HLM Clint
Cc1ccc(N2CCN(C)CC2)c2c1CCN(C(=O)N1CCC(Oc3ccc(OC(F)(F)F)cc3)CC1)C2	48
CN1CCN(c2cccc3c2CN(Cc2ccc(-c4ccc(Cl)cc4)cn2)CC3)CC1	121

Required: HLM Clint, one value per molecule below.
1. CCc1ccc(N2CCN(C)CC2)c2c1CCN(C(=O)Nc1ccc(-c3ccc(C(F)(F)F)cc3)cn1)C2
2. COc1ccc(N2CCN(C)CC2)c2c1CCN(C(=O)Nc1ccc(-c3ccc(Cl)cc3Cl)cn1)C2

Ans:
1. 107
2. 48

The molecule Cc1cc(Cl)ccc1-c1ccc(NC(=O)N2CCc3c(F)ccc(N4CCN(C)CC4)c3C2)nc1 showed HLM Clint equal to 50

###

QUANTITY_KIND: melting point

# annotated cases, reported melting point shown
COMPOUND_STRUCTURE	melting point
COc1ccc(N2CCN(C)CC2)c2c1CCN(C(=O)c1ccc(-c3ccc(Cl)cc3)cn1)C2	124 to 127 °C
COc1ccc(N2CCN(C)CC2)c2c1CCN(C(=O)N1CCC(Oc3ccc(OC(F)(F)F)cc3)CC1)C2	49 to 51 °C
CN1CCN(c2cccc3c2CN(C(=O)c2ccc(-c4cccc(Cl)c4)cn2)CC3)CC1	105 to 108 °C
CCc1ccc(N2CCN(C)CC2)c2c1CCN(C(=O)Nc1ccc(-c3ccc(Cl)cc3C)cn1)C2	180 to 182 °C

Please state, for each entry, its recorded melting point.
1. COc1ccc(N2CCN(C)CC2)c2c1CCN(C(=O)Nc1ccc(-c3cc(C(F)(F)F)cc(C(F)(F)F)c3)cn1)C2
2. Cc1cc(Cl)ccc1-c1ccc(CC(=O)N2CCc3cccc(N4CCN(C)CC4)c3C2)nc1
3. CSc1ccc(N2CCN(C)CC2)c2c1CCN(Cc1ccc(-c3ccc(Cl)cc3C)cn1)C2
4. Cc1ccc(-c2ccc(NC(=O)N3CCc4c(Cc5ccccc5)ccc(N5CCN(C)CC5)c4C3)nc2)c(C)c1
5. COc1ccc(-c2ccc(NC(=O)N3CCc4c(OC)ccc(N5CCN(C)CC5)c4C3)nc2)cc1
6. CN1CCN(c2cccc3c2CN(C(=O)Cc2ccc(-c4ccc(Cl)cc4)cn2)CC3)CC1
7. Cc1cc(Cl)ccc1-c1ccc(C(=O)N2CCc3cccc(N4CCN(C)CC4)c3C2)nc1
8. COc1ccc(N2CCN(C)CC2)c2c1CCN(C(=O)Nc1ccc(-c3ccc(OC(F)(F)F)cc3)cn1)C2

Ans:
1: 106 to 109 °C; 2: 45 to 48 °C; 3: 65 to 68 °C; 4: 94 to 97 °C; 5: 207 to 209 °C; 6: 49 to 52 °C; 7: 132 to 135 °C; 8: 196 to 198 °C

Each compound below has a reported value. Please supply its melting point.
1. COc1ccc(-c2ccc(NC(=O)N3CCc4c(OC)ccc(N5CCN(C)CC5)c4C3)nc2)cn1
2. COc1ccc(N2CCN(C)CC2)c2c1CCN(C(=O)Nc1ccc(-c3cncnc3)cn1)C2
3. COc1ccc(N2CCN(C)CC2)c2c1CCN(C(=O)c1ccc(-c3ccc(Cl)cc3C)cn1)C2
4. COc1ccc(N2CCN(C)CC2)c2c1CCN(C(=O)N1CCC(Oc3ccccc3C(F)(F)F)CC1)C2

Ans:
1: 93 to 96 °C; 2: 236 to 239 °C; 3: 125 to 128 °C; 4: 74 to 77 °C

###

Task for the reader: assign each of the following compounds its reported melting point.

COMPOUND	TEST_RESULT
COc1ccc(N2CCN(C)CC2)c2c1CCN(C(=O)Nc1ccc(-c3ccc(Cl)cc3Cl)cn1)C2 [Compound 36]	108 to 111 °C
COc1ccc(N2CCN(C)CC2)c2c1CCN(C(=O)Nc1ccc(-c3ccc(Cl)cc3C)cn1)C2 [Compound 35]	99 to 101 °C

Give measured melting point for every item shown.
1. Cc1cc(Cl)ccc1-c1ccc(CN2CCc3c(C)ccc(N4CCSCC4)c3C2)nc1 [Compound 54]
2. CN1CCN(c2cccc3c2CN(C(=O)c2ccc(-c4ccc(Cl)cc4)cn2)CC3)CC1 [Compound 19]
3. Cc1cc(Cl)ccc1-c1ccc(CN2CCc3c(C)ccc(N4CCCCC4)c3C2)nc1 [Compound 55]

Ans:
["133 to 135 °C", "144 to 147 °C", "96 to 98 °C"]

Note to self: melting point recorded for CSc1ccc(N2CCN(C)CC2)c2c1CCN(C(=O)Nc1ccc(-c3ccc(Cl)cc3C)cn1)C2 [Compound 40] was 111 to 114 °C
